Values were extracted from patent US20230183352A1.

Parameter: max. Scope: all listed entries.
Molecular target: T1, Claudin 18.2 (CLDN18.2), expressed on CHOS-CLDN 18.2 / HEK293-CLDN 18.2 / HCC827-CLDN 18.2 cells (human, UniProt P56856-2 1-261)
T1 construct: whole, on cells; The species is not repeated for the CHOS-CLDN 18.2 cells; also called claudin-18A2
Experiment: FACS, CHOS-CLDN18.2 cells
// print number alone

QP024025 (antibody, human IgG1, V domains shown, also called IMAB362; 175D10(IMAB362)) VH: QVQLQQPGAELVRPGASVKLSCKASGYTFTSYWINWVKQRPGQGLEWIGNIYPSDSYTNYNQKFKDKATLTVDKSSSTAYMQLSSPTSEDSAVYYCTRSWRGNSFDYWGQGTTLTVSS VL: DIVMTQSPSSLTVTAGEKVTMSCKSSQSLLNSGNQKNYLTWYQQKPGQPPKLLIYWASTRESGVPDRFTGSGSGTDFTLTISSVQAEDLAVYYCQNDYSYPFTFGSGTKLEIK : 88600

Endpoint output: max of QP14581453 (antibody, human IgG1, kappa, V domains shown, Humanized from QP201202) VH: QVQLVQSGAEVKKPGASVKVSCKASGYTFTNYFVHWVKQAPGQGLEWIGYINPYNDDTKYNEKFKGKATLTRDTSTSTVYMELSSLRSEDTAVYYCLSLRFFAYWGQGTLVTVSS VL: DIVMTQSPDSLAVSLGERATISCKSSQSLLNSGNQKNYLTWYQQKPGQAPKLLIYWASTRESGVPDRFSGSGSGTDFTLTISSLQAEDVAVYYCQNDYSYPLTFGGGTKVEIKR . Value?
104000

Endpoint output: max of QP14581454 (antibody, human IgG1, kappa, V domains shown, Humanized from QP201202) VH: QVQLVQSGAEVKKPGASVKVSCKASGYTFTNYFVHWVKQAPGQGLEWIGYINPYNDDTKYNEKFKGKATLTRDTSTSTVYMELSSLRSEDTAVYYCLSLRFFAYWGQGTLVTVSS VL: DIVMTQSPDSLAVSLGERATISCKSSQSLLNSGNQKNYLTWYQQKPGQAPKLLIYWASTRESGVPDRFSGSGSGTDFTLTISSVQAEDVAVYFCQNDYSYPLTFGGGTKVEIKR . Value?
73700

Endpoint output: max of QP14561454 (antibody, human IgG1, kappa, V domains shown, Humanized from QP201202) VH: QVQLVQSGAEVKKPGASVKVSCKASGYTFTNYFVHWVRQAPGQGLEWMGYINPYNDDTKYNEKFKGRVTMTRDTSTSTVYMELSSLRSEDTAVYYCLSLRFFAYWGQGTLVTVSS VL: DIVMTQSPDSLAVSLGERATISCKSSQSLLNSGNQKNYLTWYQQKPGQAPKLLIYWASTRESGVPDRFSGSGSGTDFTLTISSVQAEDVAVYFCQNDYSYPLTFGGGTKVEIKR . Value?
146000
